Values compiled from patent EP4755885A1.

Property: Cmax; scope: individual compounds
assay: Pharmacokinetic evaluation in beagles, oral administration; type: in vivo; conditions: dog, po, p.o. 2 mg/kg, plasma, read-out: Cmax
Reply with just the number (in ng/mL).

QUERY SMILES | ASSAY VALUE
Cc1cc(-n2nc3c(c2-n2ccn(-c4ccc5c(cnn5C5CC5)c4F)c2=O)[C@H](C)N(C(=O)c2cc4cc([C@H]5CCOC(C)(C)C5)ccc4n2[C@@]2(c4noc(=O)[nH]4)C[C@@H]2COC2CC2)CC3)cc(C)c1F | 2110

Request: Given the compound [2H]C([2H])([2H])n1nc2c3c(c(-n4ccn(-c5c6c(nn5-c5cc(C)c(F)c(C)c5)CCN(C(=O)c5cc7cc([C@H]8CCOC(C)(C)C8)ccc7n5[C@@]5(c7noc(=O)[nH]7)C[C@@H]5C)[C@H]6C)c4=O)ccc31)OCCC2 , what is its reported Cmax?
Result: 858

Request: // returns reported Cmax for input Cc1cc(-n2nc3c(c2-n2ccn(-c4ccc5c(cnn5C5CC5)c4F)c2=O)[C@H](C)N(C(=O)c2cc4cc([C@H]5CCOC(C)(C)C5)ccc4n2[C@@]2(c4noc(=O)[nH]4)[C@@H]4COC[C@@H]42)CC3)cc(C)c1F
Result: 4360

====

We begin with a simple list: items and their reported pEC50.
target: human GLP-1 receptor (Homo sapiens); construct: expressed in transfected cells; assay: cAMP production in cell line stably transformed with human GLP1 receptor, 30 min co-incubation (HTRF); format: cell-based; conditions: CHO-K1/GLP-1R/CRE-luc cells, stimulation for 0.5 h, read-out: EC50
Sequence (P43220 24-463): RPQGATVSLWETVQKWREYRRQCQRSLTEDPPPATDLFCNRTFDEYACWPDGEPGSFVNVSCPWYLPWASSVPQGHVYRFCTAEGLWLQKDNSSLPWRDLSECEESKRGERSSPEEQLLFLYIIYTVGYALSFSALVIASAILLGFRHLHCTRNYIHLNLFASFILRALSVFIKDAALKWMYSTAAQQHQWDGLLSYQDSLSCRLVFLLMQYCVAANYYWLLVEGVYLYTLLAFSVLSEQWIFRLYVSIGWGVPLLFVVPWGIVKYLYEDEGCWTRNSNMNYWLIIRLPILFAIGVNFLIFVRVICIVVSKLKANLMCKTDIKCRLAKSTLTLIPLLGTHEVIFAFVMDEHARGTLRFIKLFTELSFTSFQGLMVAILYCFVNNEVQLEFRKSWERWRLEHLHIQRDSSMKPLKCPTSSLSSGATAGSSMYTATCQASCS
Kindly note that pEC50 refers to -log10 of the concentration in mol/L and answer with the value alone.

Here is how some molecules turned out for pEC50.
MOLECULE | pEC50
Cc1cc(-n2nc3c(c2-n2ccn(-c4ccc5c(c4F)CCc4nnc(C)n4-5)c2=O)[C@H](C)N(C(=O)c2cc4cc([C@H]5CCOC(C)(C)C5)ccc4n2[C@@]2(c4noc(=O)[nH]4)C[C@@H]2C)CC3)cc(C)c1F | 9.29
CC#C[C@H]1C[C@]1(c1noc(=O)[nH]1)n1c(C(=O)N2CCc3nn(-c4cc(C)c(F)c(C)c4)c(-n4ccn(-c5ccc6c(cnn6C6CC6)c5F)c4=O)c3[C@@H]2C)cc2cc([C@H]3CCOC(C)(C)C3)ccc21 | 9.00
Cc1cc(-n2nc3c(c2-n2ccn(-c4ccc5c(c4F)C4(CC4)C(=O)N5C)c2=O)[C@H](C)N(C(=O)c2cc4cc([C@H]5CCOC(C)(C)C5)ccc4n2[C@@]2(c4noc(=O)[nH]4)C[C@@H]2C)CC3)cc(C)c1F | 9.49
Cc1cc(-n2nc3c(c2-n2ccn(-c4ccc(N=S(C)(C)=O)cc4F)c2=O)[C@H](C)N(C(=O)c2cc4cc([C@H]5CCOC(C)(C)C5)ccc4n2[C@@]2(c4noc(=O)[nH]4)C[C@@H]2C)CC3)cc(C)c1F | 9.43
[2H]C([2H])([2H])n1nc2c3c(c(-n4ccn(-c5c6c(nn5-c5cc(C)c(F)c(C)c5)CCN(C(=O)c5cc7cc([C@H]8CCOC(C)(C)C8)ccc7n5[C@@]5(c7noc(=O)[nH]7)C[C@@H]5COC5CC5)[C@H]6C)c4=O)ccc31)OCCC2 | 9.15
Cc1cc(-n2nc3c(c2-n2ccn(-c4cc5c6c(c4)OCC(=O)N6CCC5)c2=O)[C@H](C)N(C(=O)c2cc4cc([C@H]5CCOC(C)(C)C5)ccc4n2[C@@]2(c4noc(=O)[nH]4)C[C@@H]2C)CC3)cc(C)c1F | 9.05
[2H]C([2H])([2H])N1C(=O)C2CC2c2cc(-n3ccn(-c4c5c(nn4-c4cc(C)c(F)c(C)c4)CCN(C(=O)c4cc6cc([C@H]7CCOC(C)(C)C7)ccc6n4[C@@]4(c6noc(=O)[nH]6)C[C@@H]4C)[C@H]5C)c3=O)ccc21 (stereo partly shown) | 8.86
Cc1cc(-n2nc3c(c2-n2ccn(-c4ccc5c(c4)CCc4nnc(C)n4-5)c2=O)[C@H](C)N(C(=O)c2cc4cc([C@H]5CCOC(C)(C)C5)ccc4n2[C@@]2(c4noc(=O)[nH]4)C[C@@H]2C)CC3)cc(C)c1F | 9.29
[2H]C([2H])([2H])n1nc2c3c(c(-n4ccn(-c5c6c(nn5-c5cc(C)c(F)c(C)c5)CCN(C(=O)c5cc7cc([C@H]8CCOC(C)(C)C8)ccc7n5[C@@]5(c7noc(=O)[nH]7)C[C@@H]5C#C)[C@H]6C)c4=O)ccc31)OCCC2 | 9.05
Cc1cc(-n2nc3c(c2-n2ccn(-c4ccc5c(c4)CCc4nnnn4-5)c2=O)[C@H](C)N(C(=O)c2cc4cc([C@H]5CCOC(C)(C)C5)ccc4n2[C@@]2(c4noc(=O)[nH]4)C[C@@H]2C)CC3)cc(C)c1F | 8.82

Request: Reported pEC50, molecule Cc1cc(-n2nc3c(c2-n2ccn(-c4ccc5c(c4)OCc4nnc(C)n4-5)c2=O)[C@H](C)N(C(=O)c2cc4cc([C@H]5CCOC(C)(C)C5)ccc4n2[C@@]2(c4noc(=O)[nH]4)C[C@@H]2C)CC3)cc(C)c1F : ____
Result: 9.06

Request: Entry Cc1cc(-n2nc3c(c2-n2ccn(-c4ccc(CC(=O)N(C)C)cc4F)c2=O)[C@H](C)N(C(=O)c2cc4cc([C@H]5CCOC(C)(C)C5)ccc4n2[C@@]2(c4noc(=O)[nH]4)C[C@@H]2C)CC3)cc(C)c1F : reported pEC50 = ?
Result: 9.52

Request: pEC50 for [2H]C([2H])([2H])N1C(=O)C2(CC2)c2cc(-n3ccn(-c4c5c(nn4-c4cc(C)c(C#N)c(C)c4)CCN(C(=O)c4cc6cc([C@H]7CCOC(C)(C)C7)ccc6n4[C@@]4(c6noc(=O)[nH]6)C[C@@H]4C)[C@H]5C)c3=O)ccc21 ?
Result: 9.60
